experimental system: Protein Mdm4 (Homo sapiens) + E3 ubiquitin-protein ligase Mdm2 (Homo sapiens) (UniProt O15151+Q00987)
Sequence (O15151 whole entry, looked up): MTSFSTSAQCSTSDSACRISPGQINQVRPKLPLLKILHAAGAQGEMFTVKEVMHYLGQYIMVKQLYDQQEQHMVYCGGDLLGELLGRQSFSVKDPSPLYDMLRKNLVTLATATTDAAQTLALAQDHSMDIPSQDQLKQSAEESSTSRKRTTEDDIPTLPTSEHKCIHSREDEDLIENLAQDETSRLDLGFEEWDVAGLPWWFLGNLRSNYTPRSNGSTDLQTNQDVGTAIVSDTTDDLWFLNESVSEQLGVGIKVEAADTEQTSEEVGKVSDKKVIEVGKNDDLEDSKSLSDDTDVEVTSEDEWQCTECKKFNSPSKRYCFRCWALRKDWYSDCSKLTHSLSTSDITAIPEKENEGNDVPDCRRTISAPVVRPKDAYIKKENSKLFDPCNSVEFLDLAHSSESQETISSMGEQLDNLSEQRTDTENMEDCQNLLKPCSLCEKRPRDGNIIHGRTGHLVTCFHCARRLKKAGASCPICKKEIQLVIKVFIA
Sequence (Q00987 whole entry, looked up): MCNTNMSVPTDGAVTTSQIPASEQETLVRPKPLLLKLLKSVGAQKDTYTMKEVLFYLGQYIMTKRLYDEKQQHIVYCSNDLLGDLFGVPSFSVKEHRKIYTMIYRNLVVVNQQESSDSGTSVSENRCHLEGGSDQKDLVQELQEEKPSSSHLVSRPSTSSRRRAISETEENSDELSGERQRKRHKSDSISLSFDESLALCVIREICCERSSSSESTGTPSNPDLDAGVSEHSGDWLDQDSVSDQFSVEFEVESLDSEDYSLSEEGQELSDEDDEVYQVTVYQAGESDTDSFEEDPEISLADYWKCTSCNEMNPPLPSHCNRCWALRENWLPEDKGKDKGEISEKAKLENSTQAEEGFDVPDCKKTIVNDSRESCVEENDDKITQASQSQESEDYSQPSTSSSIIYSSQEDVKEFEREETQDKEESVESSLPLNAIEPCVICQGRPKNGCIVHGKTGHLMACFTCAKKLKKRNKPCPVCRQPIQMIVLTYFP
assay protocol: Mdm2-MdmX complex disruptors, retested hits, confirmation, luminescence, single concentration (AID 489028)
experimental setup: Mdm2-MdmX binding, luminescent assay; at 8 µM; active compounds read high
The campaign covered roughly 10,000 compounds. About 5,600 (56%) were called active. So high a share suggests a set chosen from earlier hits. The list is a sample of the results.
value kind: inhibition

Take each entry in turn and give its inhibition.
1. COc1ccc(C2CC(c3ccccc3)=NN2C(=O)c2ccc(Cl)c([N+](=O)[O-])c2)cc1 (stereo not given)
2. CCOc1ccc2nc(Cl)c(C3CC(c4ccccc4)=NN3C(=O)c3cccs3)cc2c1 (stereo not given)
3. COc1cccc(CNC(=O)c2nnn(CC(=O)Nc3cc(Cl)ccc3C)c2N)c1
4. Cc1cc(C)nc(S/C=C/C(=O)c2ccccc2)n1
5. COc1ccc2sc(-c3ccc(S(C)(=O)=O)cc3)c(C#Cc3cncn3C)c2c1
6. O=C(CCn1c(=S)[nH]c2cc3c(cc2c1=O)OCO3)NCc1ccc(Cl)cc1
7. O=C1CN(c2nc(-c3ccccc3)c3cc(Br)ccc3n2)c2ccccc2N1

Response:
1: 46.1% (active); 2: 5.3% (inactive); 3: 62.3% (active); 4: 32.4% (inactive); 5: 60.5% (active); 6: 5.65% (inactive); 7: 16.2% (inactive)
